Taken from PubChem BioAssay (NCATS).

Test system: ECU
assay_protocol: qHTS profiling for inhibitors of Plasmodium falciparum proliferation (AID 504749); further: nearly all actives have a fitted effect of over 60% in size
test_parameters: P. falciparum in erythrocytes, SYBR Green DNA, 72 h; series mostly up to 28.7 µM
Records with an inconclusive call do not appear. Active and inactive are the calls of the source. The call rests on the fitted dose curve; in most records, active means well fitted inhibition curve with a large enough effect; inconclusive means small, poorly fitted or top-dose-only effect; inactive means flat fitted curve, though single readings scatter.
Pick one and only one: active, inactive

| compound | label_class |
| --- | --- |
| CC(C)(C)C(=O)C(Oc1ccc(Cl)cc1)n1ccnc1 (centres undefined) | active |
| CCCCN(CCCC)CCCOC(=O)c1ccc(N)cc1 | inactive |
| CNC(=O)Oc1ccc2c(c1)[C@]1(C)CCN(C)[C@@H]1N2C | active |

QUERY: Recorded call for "Cc1cc(N)c2ccccc2[n+]1CCCCCCCCCC[n+]1c(C)cc(N)c2ccccc21" ?
RESULT: active

QUERY: Test call, this compound: "CCCCOC(=O)c1ccc(O)cc1"
RESULT: inactive

QUERY: Status in this test for CC(O)COc1ccccc1 (centres undefined) ?
RESULT: inactive

QUERY: Which outcome did this test record for the compound "NC(=O)NNc1ccccc1" ?
RESULT: inactive

QUERY: Dear all, I need the recorded test outcome for CCCCC(CC)COC(=O)c1ccccc1O (centres undefined) , thank you.
RESULT: inactive

QUERY: Recorded test call requested for "Cc1c(O)cccc1C(=O)N[C@@H](CSc1ccccc1)[C@H](O)CN1C[C@H]2CCCC[C@H]2C[C@H]1C(=O)NC(C)(C)C"
RESULT: active

QUERY: State the result this test recorded for "O=C(O)[C@@H]1CSCN1" .
RESULT: inactive

QUERY: # lookup: test call for CSc1ccc2c(c1)N(CCC1CCCCN1C)c1ccccc1S2 (centres undefined)
RESULT: active

QUERY: Status in this test for "NCC(=O)CCC(=O)O" ?
RESULT: inactive

QUERY: What did this assay record as the result for "CCC(=O)Nc1ccc(O)cc1" ?
RESULT: inactive

QUERY: Which result was noted for this compound in the test: "CCN(CC)CCNC(=O)c1cc(Cl)c(N)cc1OC"
RESULT: inactive

----------
assay_protocol: Cell Viability - SK-N-SH (AID 435);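 further: potency means the concentration at half of the fitted maximal effect; compound exposure lasted 40 h at 37 °C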
test_parameters: SK-N-SH neuroblastoma cell viability qHTS
Results filed as inconclusive are left out. Activity calls are given as the source filed them. Calls come from the whole dose curve.
Overview of reported Potency across a group of molecules:

# annotated cases, reported Potency shown
| smiles_representation | Potency |
| --- | --- |
| C[C@]12C[C@H](O)[C@H]3[C@@H](CCC4=CC(=O)CC[C@@]43C)[C@@H]1CC[C@@H]2C(=O)CO | > 92 µM (inactive) |
| CCCCOC(=O)c1ccc(O)cc1 | > 92 µM (inactive) |

QUERY: Let me know recorded Potency for "COc1ccccc1O" , thanks.
RESULT: > 92 µM (inactive)

----------
Readings of activity change, negative = cytotoxicity for the listed compounds
System: WaGa
assay_protocol: qHTS assay to identify novel small-molecules to repurpose for Merkel cell carcinoma treatment (AID 1296009); further: on the % scale 0 is the no-effect control and ±100 the full control effect; nearly all actives have a fitted effect of over 60% in size
test_parameters: MCC and control cell lines, CellTiter-Glo viability, 72 h; series mostly up to 46 µM
Inconclusive results are not listed. Active and inactive are the calls of the source. Calls come from the whole dose curve; as a rule, active = well fitted inhibition curve with a large enough effect; inconclusive = small, poorly fitted or top-dose-only effect; inactive = flat fitted curve, though single readings scatter.

| smiles_representation | value_observed |
| --- | --- |
| C/C(=C(\CCOP(=O)(O)O)SC(=O)c1ccccc1)N(C=O)Cc1cnc(C)nc1N | 24.3% [at 4.84 µM] (inactive) |
| NCCNCCNCCNCCN | -2.21% [at 9.22 µM] (inactive) |
| C[C@](N)(Cc1ccc(O)cc1)C(=O)O | -0.23% [at 4.84 µM] (inactive) |
| NC(N)=NCCC[C@H](N)C(=O)O | 4.2% [at 4.84 µM] (inactive) |

QUERY: Return activity change, negative = cytotoxicity for the following compound: "N[C@@H](CSSC[C@H](N)C(=O)O)C(=O)O"
RESULT: 9.72% [at 0.597 µM] (inactive)

----------
assay_protocol: qHTS drug screen for cell cycle checkpoint inhibitors in PARPi-resistant BRCA-mutant ovarian cancer cell lines. (AID 1963452)
test_parameters: PEO1/OlaR viability, CellTiter-Glo luminescence, 96 h; measured here: PEO1 parental Z-AUC; stronger effect = lower value
Property: Z-AUC; scope: individual molecules
Just the number, please, no unit after it.

| smiles_representation | Z-AUC |
| --- | --- |
| OC[C@H]1O[C@@H](O[C@@H]2[C@@H](CO)O[C@](O)(CO)[C@H]2O)[C@H](O)[C@@H](O)[C@H]1O | -0.31 |
| CC1=C(/C=C/C(C)=C/C=C/C(C)=C/C(=O)O)C(C)(C)CCC1 | 0.0467 |
| CCN(CC)CCNC(=O)c1c(C)[nH]c(/C=C2\C(=O)Nc3ccc(F)cc32)c1C | -0.162 |

QUERY: Please supply the value of reported Z-AUC for the item "Nc1ncnc2c1ncn2[C@@H]1O[C@H](CO)[C@@H](O)[C@H]1O"
RESULT: 0.71

QUERY: Give recorded Z-AUC. "CC(=O)O[C@@]12CO[C@@H]1C[C@H](O)[C@@]1(C)C(=O)[C@H](O)C3=C(C)[C@@H](OC(=O)[C@H](O)[C@@H](NC(=O)OC(C)(C)C)c4ccccc4)C[C@@](O)([C@@H](OC(=O)c4ccccc4)[C@H]21)C3(C)C"
RESULT: -2.65

QUERY: For "Cn1c(=O)c2c(ncn2CC2OCCO2)n(C)c1=O" , write its Z-AUC.
RESULT: -0.316

QUERY: Complete the entry with Z-AUC for "CN(N=O)C(=O)N[C@@H]1[C@@H](O)[C@H](O)[C@@H](CO)O[C@@H]1O"
RESULT: 0.655

QUERY: Recall and state the measured Z-AUC for "NC(=O)c1ncn([C@@H]2O[C@H](CO)[C@@H](O)[C@H]2O)n1" .
RESULT: -0.186

----------
assay_protocol: Cell Viability - H-4-II-E (AID 543);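 further: cells exposed to compound for 40 hours; nearly all actives have a fitted effect of over 35% in size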
test_parameters: H-4-II-E rat hepatoma viability; series mostly up to 92.2 µM
From the text: NIH Chemical Genomics Center [NCGC] NIH Molecular Libraries Screening Centers Network [MLSCN] National Institutes of Environmental Health Sciences [NIEHS] National Toxicology Program [NTP] We have developed a 1536-well cell-based assay for quantitative high throughput screening (qHTS) against a number of cell lines to determine in vitro cytotoxicity of small molecules. This particular assay uses the H-4-II-E cell line which is derived from rat hepatoma. […] 8. Detection; Luminescence; Viewlux plate reader […]
Inconclusive results are not listed. Activity calls are given as the source filed them. The call rests on the fitted dose curve; in most records, active means well fitted cell-killing curve with a large enough effect; inconclusive means small, poorly fitted or top-dose-only effect; inactive means flat fitted curve, though single readings scatter.
Hello, when you answer, please use one of the following outcomes: active, inactive

| smiles_representation | label_class |
| --- | --- |
| [Cl][In]([Cl])[Cl] | inactive |
| COc1ccccc1O | inactive |
| Cc1cc(CC(=O)O)n(C)c1C(=O)c1ccc(Cl)cc1 | inactive |
| NCCNCCNCCN | inactive |
| NC(=O)N/N=C/c1ccc([N+](=O)[O-])o1 | active |
| CC1(C)[C@@H]2CC[C@@]1(C)C(=O)C2 | inactive |
| O=C1c2c(O)cccc2Cc2cccc(O)c21 | inactive |
| NCCNCCNCCNCCN | inactive |

QUERY: For "CCCCOC(=O)c1ccc(O)cc1" , what call appears in the results of this test?
RESULT: inactive

QUERY: Dear colleague, could you share the recorded outcome for "CC12CCC(CC1)C(C)(C)O2" when you have a moment?
RESULT: inactive

QUERY: For this compound, state the assay outcome: "Oc1cccc(O)c1"
RESULT: inactive

----------
Overview of recorded max response for various compounds
assay_protocol: qHTS Assay for Identifying Gametocytocidal Compounds (AID 743244);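 further: on the % scale 0 is the no-effect control and ±100 the full control effect; actives lower the fluorescent signal which means gametocytes are killed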
test_parameters: P. falciparum 3D7 stage III-V gametocytes, alamarBlue, 72 h; stronger effect = lower value
Records with an inconclusive call do not appear.
Just the number in %, nothing appended.

Record excerpt, results attached:
| compound | max response [%] |
| --- | --- |
| CC1(C)[C@@H]2CC[C@@]1(C)C(=O)C2 | -6.95 |
| CCCCCCCCCCCCCCCCCCOCC(O)CO (configuration not stated) | 1.98 |
| Nc1ccc(S(=O)(=O)Nc2ccccc2)cc1 | -2.25 |

Now, please, on to the next compound.
QUERY: Answer with the recorded max response for the compound listed here: "CCCCOc1cc(C(=O)OCCN(CC)CC)ccc1N"
RESULT: 9.75

----------
Test system: HaCat
assay_protocol: Cytotoxic Profiling of Annotated Libraries Using Quantitative High-Throughput Screening (AID 1296008); further: on the % scale 0 is the no-effect control and ±100 the full control effect; nearly all actives have a fitted effect of over 60% in size
test_parameters: Five cell lines viability, CellTiter-Glo ATP luminescence, 48-72 h; stronger effect = lower value
Results filed as inconclusive are left out. The source made the active and inactive calls. The call rests on the fitted dose curve; in most records, active means well fitted inhibition curve with a large enough effect; inconclusive means small, poorly fitted or top-dose-only effect; inactive means flat fitted curve, though single readings scatter.
Each entry below carries its reported max response.

Some compounds with known max response results, for comparison:
| compound | max response |
| --- | --- |
| Cc1cc(N)c2ccccc2[n+]1CCCCCCCCCC[n+]1c(C)cc(N)c2ccccc21 | -1.45% (inactive) |
| O=c1[nH]c(=O)c2[nH]c(=O)[nH]c2[nH]1 | 1.96% (inactive) |
| CCOC(=O)c1ccc(O)cc1 | -1.41% (inactive) |

QUERY: Query max response for "CCCCN1CCCC[C@H]1C(=O)Nc1c(C)cccc1C"
RESULT: -56.1% (inactive)

QUERY: # return recorded max response for input "COc1ccccc1O"
RESULT: 3.89% (inactive)

QUERY: Annotate the compound "CCCCc1ncc(/C=C(\Cc2cccs2)C(=O)O)n1Cc1ccc(C(=O)O)cc1" with its measured max response.
RESULT: -8.96% (inactive)
